Source: patent US20220017615A1

target: T1, human CD47, full length, on transfected cells (human, UniProt Q08722 19-323); assay: FACS CHOK1-hCD47; Ab 200 nM
T1 construct: whole, on cells; also called CHOK1-hCD47
Please go through the items and note down their mean fluorescence intensity.
// no unit, no text: just the number

In plain terms, 20H4G5 (antibody, V domains shown, Murine hybridoma antibody purified on protein G) VH: QVQLQQPGAELVRPGSSVRLSCVTSGYTFTSHWMHWVKQGPIKGLEWIGNIDPSDSETHYNQKFKDKATLTVDKSSSTAYMQLSRLTSDDSAVYYCARWRHLGIGAMDYWGQGTSVIVSS VL: DVQITQSPSYLAASPGETITINCRASKNISKFLAWYQAKPGKSNNLLIYSGSTLQSGIPSRFSGSGSGTDFTLTISRLEPEDFAMYYCQQHNEYPWTFGGGTKLEIK has a documented mean fluorescence intensity of 6550

Value of measured mean fluorescence intensity for the entry 4D10B11 (antibody, V domains shown, Murine hybridoma antibody purified on protein G) VH: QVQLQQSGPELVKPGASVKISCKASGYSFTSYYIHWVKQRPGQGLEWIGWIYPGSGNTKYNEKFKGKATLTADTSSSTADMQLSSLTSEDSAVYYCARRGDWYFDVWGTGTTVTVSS VL: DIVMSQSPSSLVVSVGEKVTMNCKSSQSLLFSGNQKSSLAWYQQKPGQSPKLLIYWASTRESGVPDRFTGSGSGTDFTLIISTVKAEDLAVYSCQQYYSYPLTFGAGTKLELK : 10500
